Test system: HCV 1b_Huh-Luc/Neo-ET cell line persistently expressing a bicistronic genotype 1b replicon in Huh 7 cells
measurement.notes: HCV replicon assay (luciferase readout)
Assay type: cell-based
condition.description: Hepatitis C virus, Huh-7, 72 h, read-out: Inhibition of HCV genotype 1b
Protocol: Biological activity of the compounds of the invention was determined using an HCV replicon assay. The HCV 1b_Huh-Luc/Neo-ET cell line persistently expressing a bicistronic genotype 1b replicon in Huh 7 cells was obtained from ReBLikon GMBH. This cell line was used to test compound inhibition using luciferase enzyme activity readout as a measurement of compound inhibition of replicon levels. […] EC50 values of compounds are determined several times in the replicon assay. […]
pEC50: −log10 of the molar value.
readout.type: pEC50

COC(=O)N[C@@H](C(=O)N1CCC[C@H]1c1ncc(-c2ccc(C#Cc3ccc(-c4cnc([C@@H]5CCCN5C(=O)[C@H](NC(=O)OC)[C@H](C)OC)[nH]4)cc3)cc2)[nH]1)[C@H](C)OC; 6.00 to 8.00
COC(=O)N[C@H](C(=O)N1CCC[C@H]1c1ncc(-c2ccc(C#Cc3ccc4nc([C@@H]5CCCN5C(=O)[C@@H](NC(=O)OC)C5CCOCC5)[nH]c4c3)cc2F)[nH]1)C1CCOCC1; > 9.00

[Q] Dear colleague, I am looking for the recorded pEC50 of the following compound: COC(=O)N[C@H](C(=O)N1CC[C@H](O)[C@H]1c1ncc(-c2ccc(C#Cc3ccc4nc([C@@H]5CCCN5C(=O)[C@@H](NC(=O)OC)C(C)C)[nH]c4c3)cc2)[nH]1)C(C)C
[A] > 9.00

[Q] Dear colleague, I am looking for the recorded pEC50 of the following compound: CC1(O)CCC(C(=O)N[C@@H](C(=O)N2CCC[C@H]2c2nc(-c3ccc4cc(C#Cc5cnc([C@@H]6CCCN6C(=O)[C@H](NC(=O)N6CCC(C)(O)CC6)c6ccccc6)[nH]5)ccc4c3)c[nH]2)c2ccccc2)CC1 (some centres unmarked)
[A] > 9.00

[Q] Dear colleague, I am looking for the recorded pEC50 of the following compound: C[C@H](NC(=O)[C@@H]1CCCN1C(=O)[C@H](NC(=O)C1CC1)c1ccccc1)c1ccc(C#Cc2cnc([C@@H]3CCCN3C(=O)[C@H](NC(=O)C3CC3)c3ccccc3)[nH]2)cc1
[A] 6.00 to 8.00

* * *

List of pEC50 values.
Tested on: HCV 1b_Huh-Luc/Neo-ET cell line persistently expressing a bicistronic genotype 1b replicon in Huh 7 cells
measurement.notes: HCV replicon assay (luciferase readout)
Type: cell-based
condition.description: Hepatitis C virus, Huh-7, 72 h, read-out: Inhibition of HCV genotype 1b
pEC50: −log10 of the molar value.

Look over these answered cases.
COC(=O)N1CCC[C@H]1C(=O)N1CCC[C@H]1c1ncc(-c2ccc(C#Cc3ccc4nc([C@@H]5CCCN5C(=O)[C@@H]5CCCN5C(=O)OC)[nH]c4c3)cc2)[nH]1; 6.00 to 8.00
CC(=O)N[C@@H](C(=O)N1CCC[C@H]1c1ncc(C#Cc2ccc(-c3cnc([C@@H]4CCCN4C(=O)[C@H](NC(C)=O)c4ccccc4)[nH]3)cc2)[nH]1)c1ccccc1; > 9.00
COC(=O)N[C@@H]1CCC[C@H]1C(=O)N1CCC[C@H]1c1ncc(-c2ccc(C#Cc3ccc4nc([C@@H]5CCCN5C(=O)[C@@H]5CCC[C@H]5NC(=O)OC)[nH]c4c3)cc2)[nH]1; 6.00 to 8.00

Then there is this compound:
[Q] Dear colleague, I am looking for the recorded pEC50 of the following compound: CC(C)[C@@H](C(=O)N1CCC[C@H]1c1ncc(-c2ccc(C#Cc3ccc4nc([C@@H]5CCCN5C(=O)[C@H](C(C)C)N5CCOC5=O)[nH]c4c3)cc2)[nH]1)N1CCOC1=O
[A] 8.00 to 9.00

* * *

System: HCV 1b_Huh-Luc/Neo-ET cell line persistently expressing a bicistronic genotype 1b replicon in Huh 7 cells
measurement.notes: HCV replicon assay (luciferase readout)
Assay type: cell-based
condition.description: Hepatitis C virus, Huh-7, 72 h, read-out: Inhibition of HCV genotype 1b
List of EC50 values.

Look over these answered cases.
CC(C)[C@@H](NC(=O)C1CC1)C(=O)N1CCC[C@H]1c1ncc(C#Cc2ccc(-c3cnc([C@@H]4CCCN4C(=O)[C@H](NC(=O)C4CC4)C(C)C)[nH]3)cc2)[nH]1; 1 to 9.9 nM
CC(C)[C@@H](NC(=O)OC(C)(C)C)C(=O)N1CCC[C@H]1C(=O)NCCc1ccc(C#Cc2cnc([C@@H]3CCCN3C(=O)[C@H](NC(=O)OC(C)(C)C)C(C)C)[nH]2)cc1; 10 to 999 nM
COC(=O)N[C@@H](C(=O)N1CCC[C@H]1c1ncc(C#Cc2ccc(-c3ccc(-c4cnc([C@@H]5CCCN5C(=O)[C@@H](c5ccccc5)N5CCOCC5)[nH]4)cc3)cc2)[nH]1)c1ccccc1; < 1 nM
COC(=O)N[C@@H](C(=O)N1CCC[C@H]1c1ncc(-c2ccc(C#Cc3ccc(-c4cnc([C@@H]5CCCN5C(=O)[C@H](NC(=O)N5CCC[C@@H]5CO)c5ccccc5)[nH]4)cc3)cc2)[nH]1)c1ccccc1; < 1 nM
COC(=O)N[C@@H](C(=O)N[C@H](c1ncc(-c2ccc(C#Cc3ccc(-c4cnc([C@@H]5CCCN5C(=O)[C@H](NC(=O)OC)c5ccccc5)[nH]4)cc3)cc2)[nH]1)C(C)C)c1ccccc1; < 1 nM
CC(C)(C)OC(=O)N[C@@H](C(=O)N1CCC[C@H]1C(=O)Nc1ccc(C#Cc2ccc(-c3cnc([C@@H]4CCCN4C(=O)[C@H](NC(=O)OC(C)(C)C)c4ccccc4)[nH]3)cc2)cc1)c1ccccc1; < 1 nM
CC(C)(C)OC(=O)N[C@@H](C(=O)N1CCC[C@H]1C(=O)Nc1ccc(C#Cc2cnc([C@@H]3CCCN3C(=O)[C@H](NC(=O)OC(C)(C)C)c3ccccc3)[nH]2)cc1)c1ccccc1; < 1 nM
O=C(N[C@@H](C(=O)N1CCC[C@H]1c1ncc(-c2ccc(C#Cc3ccc(-c4cnc([C@@H]5CCCN5C(=O)[C@H](NC(=O)N5CC[C@@H](O)C5)c5ccccc5)[nH]4)cc3)cc2)[nH]1)c1ccccc1)N1CC[C@@H](O)C1; < 1 nM

Then there is this molecule:
[Q] Dear colleague, I am looking for the recorded EC50 of the following molecule: COC(=O)N[C@@H](C(=O)N1CCC[C@H]1c1ncc(-c2ccc(C#Cc3ccc(-c4cnc([C@@H]5CCCN5C(=O)N5CCOCC5)[nH]4)cc3)cc2)[nH]1)c1ccccc1
[A] < 1 nM

* * *

Test system: HCV 1b_Huh-Luc/Neo-ET cell line persistently expressing a bicistronic genotype 1b replicon in Huh 7 cells
measurement.notes: HCV replicon assay (luciferase readout)
Assay type: cell-based
condition.description: Hepatitis C virus, Huh-7, 72 h, read-out: Inhibition of HCV genotype 1b
Protocol: Biological activity of the compounds of the invention was determined using an HCV replicon assay. The HCV 1b_Huh-Luc/Neo-ET cell line persistently expressing a bicistronic genotype 1b replicon in Huh 7 cells was obtained from ReBLikon GMBH. This cell line was used to test compound inhibition using luciferase enzyme activity readout as a measurement of compound inhibition of replicon levels. […] EC50 values of compounds are determined several times in the replicon assay. […]
readout.type: EC50

Look over these answered cases.
COC(=O)N[C@@H](C(=O)N1CCC[C@H]1c1ncc(-c2ccc(C#Cc3ccc(-c4cnc([C@@H]5CCCN5C(=O)[C@@H](c5ccccc5)N5CCCCC5)[nH]4)cc3)cc2)[nH]1)c1ccccc1; < 1 nM
COC(=O)N[C@H](C(=O)N1CCC[C@H]1c1ncc(-c2ccc(C#Cc3ccc(-c4cnc([C@@H]5CCCN5C(=O)[C@@H](c5ccccc5)N5CCC(O)CC5)[nH]4)cc3)cc2)[nH]1)C(C)C; < 1 nM
COC(=O)N[C@@H](C(=O)N1CCC[C@H]1c1ncc(-c2ccc(C#Cc3ccc(-c4cnc([C@@H]5CCCN5C(=O)[C@H](NC(=O)N5CC[C@@H](O)C5)c5ccccc5)[nH]4)cc3)cc2)[nH]1)c1ccccc1; < 1 nM
C[C@@H](c1ncc(-c2ccc(C#Cc3ccc(-c4cnc([C@@H]5CCCN5C(=O)[C@H](NC(=O)C5CC5)c5ccccc5)[nH]4)cc3)cc2)[nH]1)N(C)C(=O)[C@H](NC(=O)C1CC1)c1ccccc1; < 1 nM
COC(=O)NC(C)(C)C(=O)N1CCC[C@H]1c1ncc(-c2ccc(C#Cc3ccc4nc([C@@H]5CCCN5C(=O)C(C)(C)NC(=O)OC)[nH]c4c3)cc2)[nH]1; 10 to 999 nM
COC(=O)N[C@@H](CC(C)C)C(=O)N1CCC[C@H]1c1ncc(-c2ccc(C#Cc3ccc4nc([C@@H]5CCCN5C(=O)[C@H](CC(C)C)NC(=O)OC)[nH]c4c3)cc2)[nH]1; < 1 nM

[Q] Dear colleague, I am looking for the recorded EC50 of the following molecule: C[C@@H](NC(=O)OC(C)(C)C)C(=O)N1CCC[C@H]1c1ncc(C#Cc2ccc(-c3cnc([C@@H]4CCCN4C(=O)[C@@H](C)NC(=O)OC(C)(C)C)[nH]3)cc2)[nH]1
[A] 1 to 9.9 nM

[Q] Dear colleague, I am looking for the recorded EC50 of the following molecule: COC(=O)N[C@H](C(=O)N1CCC[C@H]1c1ncc(-c2ccc(C#Cc3ccc(-c4cnc([C@H](C)NC(=O)[C@@H](NC(=O)OC)[C@@H](C)OC)[nH]4)cc3)cc2)[nH]1)C(C)OC (stereo partly drawn)
[A] < 1 nM

[Q] Dear colleague, I am looking for the recorded EC50 of the following molecule: O=C(N[C@@H](C(=O)N1CCC[C@H]1c1ncc(-c2ccc(C#Cc3ccc(-c4cnc([C@@H]5CCCN5C(=O)[C@H](NC(=O)OC5CCOCC5)c5ccccc5)[nH]4)c(F)c3)cc2)[nH]1)c1ccccc1)OC1CCOCC1
[A] < 1 nM
